Please provide measured pKd for the entries that follow.
- targetUnderTest: T1, human complement factor D purified from serum (human, UniProt P00746 26-253)
- T1 construct: serum-purified (CompTech); also called hCFD-Comptech; CFD
- T1 sequence (P00746 26-253): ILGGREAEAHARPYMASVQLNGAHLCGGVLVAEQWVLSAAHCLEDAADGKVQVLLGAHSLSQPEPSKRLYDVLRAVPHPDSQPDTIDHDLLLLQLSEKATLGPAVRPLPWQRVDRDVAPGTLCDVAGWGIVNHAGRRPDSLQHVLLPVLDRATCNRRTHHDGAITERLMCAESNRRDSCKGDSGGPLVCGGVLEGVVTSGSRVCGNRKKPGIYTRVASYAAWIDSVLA
- experiment: SPR MX96
Numbers only, as −log10 of the molar value.

KCD042 (antibody, V domains shown, chimeric) VH: EVQLQQSGAELVKPGASVRLSCTASGFNIKHTYIHWVSQRPEQGLEWIGKIDPANGNTKYDPKFQGKATITADTSSNTAYLQLSSLTSEDTAVYYCVNAMEYWGQGTSVTVSS VL: QSVLTQSPAIMSASPGEKVTMTCSANSSVSDMYWFQQRPGSSPRLLIYDTSNLASGVPVRFSGSGSGTSYSLTISRMEAEDAATYYCQQWSTYPWTFGGGTKLEIK: 8.85

Hi! Can you tell me pKd for each of these binders?
1. KCD036 (antibody, V domains shown, chimeric) VH: EVQLQQSGPELVKPGASMKISCKASGYSFTGYTMTWVKQSHGKNLEWIGLINPYNGGTNYNQKFKGKATFTVDKSSSTAYMELLSLTSEDSAVYYCARRHYGSSWDYWGQGTTLTVSS VL: DIKLTQSPSSMYASLGERVTITCKASQDINTYLSWFQQKPGKSPKTLIYRANRLVDGVPSRFSGSGSGQDYSLTISSLEYEEMGIYYCLQYDEFPYTFGGGTKLEIK
2. KCD208 (antibody, V domains shown, chimeric) VH: EVQLQQSVAELVRPGASVKLSCTVSGFNIKNTYMHWVKQRPEQGLEWIGRIDPANGDTTYAPKFQGKATITADTSSNSAYLHLSRLTSEDTAIYYCSLYDYDGYWGQGTTLTVSS VL: EIVLTQSPALMAASPGEKVTITCSVSSSISSSSLHWYRQKSGTSPKPWIYGTSHLASGVPVRFSGSGSGTSYSLTISSMEAEDAATYYCQQWDTYPWTFGGGTKLEIK
3. KCD001 (antibody, V domains shown) VH: EVQLQQSGPELVKPGASVKISCKASDNSFTGYYMHWVKQSHGNILDWIGYIDPYNGVSSYNQKFKGKATLTVDKSSSTAYMEIRSLTSEDSAVYYCASYYGSSPYWYFDVWGTGTTVTVSS VL: QIVLSQSPAILSASPGEKVTMTCRASSSVSYMHWYQQKPGSSPKPWIYATSNLASGVPARFSGSGSGTSHFLTISRLEAEDAATYFCQQWSSNPYTFGGGTKLEIK

Result:
[7.59, 8.60, 9.66]

Respectfully, I request pKd for each entry included below.
1. KCD010 (antibody, V domains shown, chimeric) VH: EVLLQQSGPELVKPGASVKIPCKASGYTFTDYDMDWVKQSHGKSLEWIGHINPNNGGTIYNQKFKGKATLTVDKSSSTAYMELRSLTSEDTAVYYCGTGDFAYWGHGTLVTVSA VL: QIVLTQSPAIMSVSPGEKVTLTCSASSSVSSSYLYWYQKKPGSSPKLWIYSTSNLASGVPARFSGSGSGTSYSLTISSMEAEDAASYFCHQWSSYPPTFGAGTKLELK
2. KCD136 (antibody, V domains shown, chimeric) VH: EVQLQQSVAELVRPGASVKLSCSASGFNIKNTYMHWVNQRPEQGLEWIGRIDPANGITKYAPNFQGKATITADTSSNTAYLQLSNLTSEDTAIYYCTRAMDYWGQGTSVTVSS VL: QIVLTQSPAIMSASPGEKVTMTCSASSSVSYMYWYQQKPGSSPRLLIYDISNLASGVPVRFSGSGSGTSYSLTISRMEAEDAATYYCQQWDTYPWTFGGGTKLEIK
3. KCD057 (antibody, V domains shown) VH: EVKLVESGGGLVQPGGSLKLSCAASGFTFSNYIMSWVRQTPEKRLEWVAYITNGGGATYYPDTVKGQFTISRDNAKNTLYLQMSSLKSEDTAIYYCARHDFYALDFWGQGTSVTVSS VL: DIQMTQSPSSLSASLGGKVTITCKASQDINKYIAWYQHKPGKGPRLLIHYTSTLQPGIPSRFSGSGSGRDYSFSISNLEPEDIATYYCLKYDNLLYTFGGGTKLEIK

Result:
1: 8.51; 2: 8.35; 3: 8.57

Please give pKd, item by item, for the list that follows.
1. KCD008 (antibody, V domains shown) VH: EVQLQQSGPELVKAGASVKMSCTASGFNIKDTYMHWVKQRPEQGLAWIGRIDPANGNIKYDPKFQGKATITADTSSNTAYLQLSSLTSDDTAVYYCTSAMDYWGQGTSVTVSS VL: QIVLTQSPEIMSASPGEKVTMTCSARSSVSYMYWYQQKPGSSPRLLIYDTSNLASGVPVRFSGSGSGTSYSLTISRMETEDAATYYCQQWSTYPFTFGSGTKLEIK
2. KCD104 (antibody, V domains shown, chimeric) VH: QVQLQQPGAELVRPGTSVKLSCKASGYTFTSYWMHWVKQRPGQGLEWIGVIDPSDSYTYYNQKFKGKATLTVDTSSSTAYMQLSSLTSEDSAVYYCARNGYDGAMDYWGQGTSVTVSS VL: EIQMTQTTSSLSASLGDRVTISCRASQDISNYLNWYQQKPDGTVKLLIYYPSRLHSGVPSRFSGSGSGTDYSLTISNLEQEDFATYFCQQGNTLPYTFGGGTKLEIK

Result:
1. 8.36
2. 8.80

GET /value?item= KCD220 (antibody, V domains shown, chimeric) VH: QVQLQQSGAELMEPGASVKLSCKATGYTFTGYWIEWVKQRPGHGLEWIGETLPGSDSNNYNEKFKGKATFTADTSSNTAYMQLSSLTTEDSAIYYCARDYSNYWYFDVWGTGTTVTVSS VL: DIQMTQTTSSLSASLGDRVTISCRASQDISNYLNWYQQKPDGTVKLLIYYTSNLHSGVPSRFSGSGSGTDYSLTISNLEQEDIATYFCQQDSKHRTFGGGTKLEIK &field=pKd returns 10.27
